Biological target: Cyclin-dependent kinase 5/CDK5 activator 1 (Homo sapiens)
Sequence (Q00535 whole entry): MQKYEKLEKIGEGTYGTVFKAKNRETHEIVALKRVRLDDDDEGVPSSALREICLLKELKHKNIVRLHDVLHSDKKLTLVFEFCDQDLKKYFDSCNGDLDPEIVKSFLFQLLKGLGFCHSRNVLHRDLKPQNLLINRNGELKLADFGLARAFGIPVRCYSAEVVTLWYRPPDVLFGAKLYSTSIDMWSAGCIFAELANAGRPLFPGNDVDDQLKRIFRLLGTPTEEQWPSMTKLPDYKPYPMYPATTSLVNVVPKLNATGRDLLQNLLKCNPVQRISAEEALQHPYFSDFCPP
Sequence (Q15078 whole entry, further chain): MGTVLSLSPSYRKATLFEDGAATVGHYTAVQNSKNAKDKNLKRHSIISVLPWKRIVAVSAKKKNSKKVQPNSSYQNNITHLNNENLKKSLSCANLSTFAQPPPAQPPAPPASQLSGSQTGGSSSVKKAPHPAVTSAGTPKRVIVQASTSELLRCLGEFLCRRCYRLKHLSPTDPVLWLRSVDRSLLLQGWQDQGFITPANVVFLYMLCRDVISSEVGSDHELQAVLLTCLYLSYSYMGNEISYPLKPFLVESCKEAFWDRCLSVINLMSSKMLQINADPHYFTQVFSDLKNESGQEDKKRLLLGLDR
Test: Inhibition of human recombinant CDK5/p25 using [gamma-33P]ATP after 30 mins incubation by scintillation counting analysis
experimental endpoint: IC50

Here's what some known entries look like.
>>> print(df.to_string())
                                   compound  recorded_measurement
0  O=C1NCC(O)Cn2c1c(Br)c1ccccc12 (stereo unspecified)                5.5 µM
1  COC(=O)/C=C/c1c2n(c3ccccc13)CC(O)CNC2=O (stereo unspecified)               > 10 µM
2  COc1ccc2c(I)c3n(c2c1)CC(O)CNC3=O (stereo unspecified)               0.73 µM

So what does the record say about IC50 for Cc1c2n(c3ccccc13)CC(O)CNC2=O (stereo unspecified) ?
> 10 µM

So what does the record say about IC50 for CCCCCc1c2n(c3ccccc13)CC(O)CNC2=O (stereo unspecified) ?
> 10 µM

So what does the record say about IC50 for O=C1NCC(O)Cn2c1c(I)c1ccc(O)cc12 (stereo unspecified) ?
0.4 µM

So what does the record say about IC50 for COc1cccc2c1c(I)c1n2CC(O)CNC1=O (stereo unspecified) ?
2.9 µM

So what does the record say about IC50 for COc1ccc2c(Br)c3n(c2c1)CC(O)CNC3=O (stereo unspecified) ?
1 µM

So what does the record say about IC50 for CCCC#Cc1c2n(c3ccccc13)CC(O)CNC2=O (stereo unspecified) ?
> 10 µM

So what does the record say about IC50 for O=C1NCC(O)Cn2c1c(-c1ccccc1)c1ccccc12 (stereo unspecified) ?
> 10 µM

So what does the record say about IC50 for COc1ccc2c(c1)c(I)c1n2CC(O)CNC1=O (stereo unspecified) ?
23 µM

So what does the record say about IC50 for Cn1c2c(c3ccccc31)CC(O)CNC2=O (stereo unspecified) ?
> 10 µM

So what does the record say about IC50 for N#Cc1c2n(c3ccccc13)CC(O)CNC2=O (stereo unspecified) ?
> 10 µM

So what does the record say about IC50 for O=C1NCC(O)Cn2c1c(I)c1ccc(OCc3ccccc3)cc12 (stereo unspecified) ?
> 10 µM

So what does the record say about IC50 for O=C1NCC(O)Cn2c1c(I)c1ccccc12 (stereo unspecified) ?
0.43 µM

So what does the record say about IC50 for O=C1NCC(O)Cc2c1[nH]c1ccccc21 (stereo unspecified) ?
> 10 µM

====

Molecular target: Glycogen synthase kinase-3 (Sus scrofa, UniProt B2LUN4+I6LNT8)
Test: Inhibition of pig brain GSK-3alpha/beta using GS-1 substrate
Catalogue of IC50 values

Here's what some known entries look like.
>>> print(df.to_string())
                                   compound                             tested_system  experimental_endpoint  recorded_measurement
0  O=C1NCC(O)Cn2c1c(I)c1ccc(OCc3ccccc3)cc12 (stereo not drawn)  Glycogen synthase kinase-3 (Sus scrofa, UniProt B2LUN4+I6LNT8)                   IC50               > 10 µM
1  O=C1NCC(O)Cn2c1c(Br)c1ccccc12 (stereo not drawn)  Glycogen synthase kinase-3 (Sus scrofa, UniProt B2LUN4+I6LNT8)                   IC50               > 10 µM
2  COC(=O)/C=C/c1c2n(c3ccccc13)CC(O)CNC2=O (stereo not drawn)  Glycogen synthase kinase-3 (Sus scrofa, UniProt B2LUN4+I6LNT8)                   IC50               > 10 µM

So what does the record say about IC50 for O=C1NCC(O)Cn2c1c(I)c1ccc(O)cc12 (stereo not drawn) ?
1.1 µM

So what does the record say about IC50 for CCCCCc1c2n(c3ccccc13)CC(O)CNC2=O (stereo not drawn) ?
> 10 µM

So what does the record say about IC50 for COc1cccc2c1c(I)c1n2CC(O)CNC1=O (stereo not drawn) ?
> 10 µM

So what does the record say about IC50 for O=C1NCC(O)Cn2c1c(I)c1ccccc12 (stereo not drawn) ?
> 10 µM

So what does the record say about IC50 for O=C1NCC(O)Cn2c1c(-c1ccccc1)c1ccccc12 (stereo not drawn) ?
> 10 µM

So what does the record say about IC50 for COc1ccc2c(Br)c3n(c2c1)CC(O)CNC3=O (stereo not drawn) ?
0.7 µM

So what does the record say about IC50 for O=C1NCC(O)Cn2c1cc1ccccc12 (stereo not drawn) ?
> 10 µM

So what does the record say about IC50 for CCCC#Cc1c2n(c3ccccc13)CC(O)CNC2=O (stereo not drawn) ?
> 10 µM

So what does the record say about IC50 for COc1ccc2c(c1)c(I)c1n2CC(O)CNC1=O (stereo not drawn) ?
> 10 µM

So what does the record say about IC50 for O=C1NCC(O)Cc2c1[nH]c1ccccc21 (stereo not drawn) ?
> 10 µM
